# Test system: HepG2 cells
# assay method text: MTT anti-proliferative assay, HepG2
# Format: cell-based
# condition: Homo sapiens; HepG2 cells after 72 hours, MTT
Recorded IC50 by entry
Write the answer as a number in µM, unit excluded.

The examples below pair each entry with its known result.
COc1ccc(C2CNC(c3ccc(Br)cc3)OC23CCCCC3)cc1 (stereo not drawn) ... 37.1
COc1ccc(C2CNC(c3coc4ccccc4c3=O)OC23CCCCC3)cc1 (stereo not drawn) ... 28.8
COc1ccc(C2CNC(c3cn(Cc4ccc(-c5ccccc5C#N)cc4)c4ccccc34)OC23CCCCC3)cc1 (stereo not drawn) ... 7.3
COc1ccc(C2CNC(c3c(-c4ccccc4)[nH]c4ccccc34)OC23CCCCC3)cc1 (stereo not drawn) ... 9.8
CCCCc1nc(Cl)c(C2NCC(c3ccc(OC)cc3)C3(CCCCC3)O2)[nH]1 (stereo not drawn) ... 38.7

// lookup IC50 for COc1ccc(C2CNC(c3c[nH]c4ccccc34)OC23CCCCC3)cc1 (stereo not drawn)
28.5

// lookup IC50 for CCCCc1nc(Cl)c(C2NCC(c3ccc(OC)cc3)C3(CCCCC3)O2)n1Cc1ccc(Oc2ccccc2)cc1 (stereo not drawn)
15.8

###

# Tested on: AGS (gastric cancer cell line)
# assay method text: MTT anti-proliferative assay, AGS
# Type: cell-based
# condition: Homo sapiens
property name: IC50 (µM)
Write the answer as a number in µM, unit excluded.

// lookup IC50 for COc1ccc(C2CNC(c3cn(Cc4ccc(-c5ccccc5C#N)cc4)c4ccccc34)OC23CCCCC3)cc1 (stereo not shown)
36.9

###

# System: PLC/PRF5
# assay method text: MTT anti-proliferative assay, PLC/PRF5
# Format: cell-based
# condition: Homo sapiens, PLC-PRF-5
property name: pIC50
Bear in mind: pIC50 is minus log10 of a mol/L concentration; give just that figure.

// lookup pIC50 for COc1ccc(C2CNC(c3cn(Cc4ccc(-c5ccccc5C#N)cc4)c4ccccc34)OC23CCCCC3)cc1 (stereo not shown)
4.41

###

# Test system: HepG2 cells
# assay method text: MTT anti-proliferative assay, HepG2
# Type: cell-based
# condition: Homo sapiens; HepG2 cells after 72 hours, MTT
property name: IC50 (µM)
Write the answer as a number in µM, unit excluded.

CCCCc1nc(Cl)c(C2NCC(c3ccc(OC)cc3)C3(CCCCC3)O2)n1Cc1ccc(-c2ccccc2C#N)cc1 (stereo not shown) ... 14.3

// lookup IC50 for COc1ccc(C2CNC(c3c(Cl)cccc3Cl)OC23CCCCC3)cc1 (stereo not shown)
42.4
